Molecular target: T1, GIP receptor (human (printed as hGIPR), UniProt P48546 22-466)
T1 sequence (looked up): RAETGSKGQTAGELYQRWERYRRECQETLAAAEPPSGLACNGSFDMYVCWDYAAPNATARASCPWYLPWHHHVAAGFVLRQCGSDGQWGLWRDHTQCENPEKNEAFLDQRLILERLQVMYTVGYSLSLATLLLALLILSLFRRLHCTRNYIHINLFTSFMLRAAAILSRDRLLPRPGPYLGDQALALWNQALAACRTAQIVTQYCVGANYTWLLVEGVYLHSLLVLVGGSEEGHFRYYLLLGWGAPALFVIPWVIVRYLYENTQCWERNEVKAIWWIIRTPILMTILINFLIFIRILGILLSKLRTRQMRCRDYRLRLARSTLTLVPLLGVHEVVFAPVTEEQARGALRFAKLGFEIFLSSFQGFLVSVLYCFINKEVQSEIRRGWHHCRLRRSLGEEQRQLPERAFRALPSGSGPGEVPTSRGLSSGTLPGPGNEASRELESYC
Experiment: cell-based or functional assay
Starred links: 1 amine or outer side, 2 acyl side, 3 side chain; linkers in the order of their positions; H or OH if unused. Non-standard residues stand in square brackets, D forms with d. Groups on a side chain read outwards from the residue. No end group written: not given here. *: point of attachment. C20 diacid = O=C(O)CCCCCCCCCCCCCCCCCCC(=O)*; C18 diacid = O=C(O)CCCCCCCCCCCCCCCCC(=O)*; γGlu = O=C(O)[C@H](CCC(=O)[*:2])N[*:1]; AEEA = NCCOCCOCC(=O)O; Aib = CC(C)(N)C(=O)O
Rule: measured EC50 hGIPR 0.5% hP (CreLuc) below 0.3 nM gets 1; anything equal to or greater than 0.3 nM gets -1.

{"BINDER": "YXEGTFTSDYSIXLEKQAQXAFVEWLIKGGPSSGASLRHYXNWLTRQRY (Aib at 2, 13, 20, 41; K28 side chain carries C20DA-gGlu-gGlu-gGlu-gGlu-gGlu-gGlu-eLys; C-terminal amide) [Compound 184]", "CATEGORY": 1}
{"BINDER": "Y[Aib]EGTFTSDYSI[Aib]LEKQAQ[Aib]AFVEWLIKGGPEEPASLRHYYNWLTRQRY-NH2 (not fully specified (residue 28); also: TFA salt) [Compound 206]", "CATEGORY": 1}
{"BINDER": "Y[Aib]EGTFTSDYSI[Aib]LEKQAQ[Aib]AFIEWLIKGGPSEGASLRHYYNWLTRQRY-NH2 (not fully specified (residue 28); also: TFA salt) [Compound 258]", "CATEGORY": 1}
{"BINDER": "Y[Aib]EGTFTSDYSI[Aib]LEKQAQ[Aib]EFVEWLIKGGPSSGASLRHYYNWLTRQRY-NH2 (not fully specified (residue 28); also: TFA salt) [Compound 198]", "CATEGORY": 1}
{"BINDER": "YXEGTFTSDYSIXLEKQAQXAFVQWLIKGGPSEGASLRHYYNWLTRQRY (Aib at 2, 13, 20; K28 side chain carries C18DA-gGlu-gGlu-gGlu-gGlu-gGlu; C-terminal amide) [Compound 250]", "CATEGORY": 1}
{"BINDER": "YXEGTFTSDYSIXLEKQAQXAFVEWLIKGGPSSGASLRHYYNWRTRQRY (Aib at 2, 13, 20; D-Arg at 44; K28 side chain carries C20DA-gGlu-gGlu-gGlu-gGlu-Glu-gGlu-eLys (so in the source); C-terminal amide) [Compound 190]", "CATEGORY": 1}
{"BINDER": "Y[Aib]EGTFTSDYSI[Aib]LEKQAQ[Aib]AFVQWLIK([γGlu-γGlu-γGlu-γGlu-γGlu-γGlu-C18 diacid])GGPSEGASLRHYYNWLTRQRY-NH2 (also: TFA salt) [Compound 252]", "CATEGORY": 1}
{"BINDER": "Y[Aib]EGTFTSDYSI[Aib]LEKQAQ[Aib]EFVQWLIK([γGlu-γGlu-γGlu-γGlu-γGlu-γGlu-C20 diacid])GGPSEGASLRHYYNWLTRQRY-NH2 (also: TFA salt) [Compound 185]", "CATEGORY": -1}
{"BINDER": "Y[Aib]EGTFTSDYSI[Aib]LEKQAQ[Aib]EFVEWLIK([AEEA-AEEA-γGlu-γGlu-γGlu-γGlu-C20 diacid])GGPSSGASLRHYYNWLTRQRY-NH2 (also: TFA salt) [Compound 205]", "CATEGORY": -1}
{"BINDER": "Y[Aib]EGTFTSDYSI[Aib]LEKQAQ[Aib]AFVQWLIK([AEEA-AEEA-γGlu-γGlu-γGlu-γGlu-C20 diacid])GGPEEGASLRHYYNWLTRQRY-NH2 (also: TFA salt) [Compound 193]", "CATEGORY": -1}
